Molecular target: T1, full length human AXL (Homo sapiens, UniProt P30530)
T1 construct: expression constructs for full length human AXL; expressed in transfected cells; host or cells: HEK293T
Assay: Flow cytometry binding to transfected HEK293T cells
Settings: at least 3 experiments
This listing pairs molecules with measured Binding EC50 (µg/mL) human AXL Average (s.d.).

- molecule: "IgG1-AXL-148: AXL-specific human IgG1,κ antibody, VH SEQ ID NO:5, VL SEQ ID NO:6, Ig2 domain binding (antibody, listed as Homo sapiens, V domains shown) VH: EVQLLESGGGLVQPGGSLRLSCAASGFTFSSYAMTWVRQAPGKGLEWVSAISISGGSTFYADSVKGRFTISRDNSKNTLYLQMNSLRAEDTAVYYCRGYSGYVYDAFDFWGQGTMVTVSS VL: DIQMTQSPSSLSASVGDRVTITCRASQGISNWLAWYQQKPEKAPKSLIYAASSLQSGVPSRFSGSGSGTDFTLTISSLQPEDFATYYCQQYNSYPLTFGGGTKVEIK"
  recorded_value: "0.094 (0.059) µg/mL"
- molecule: "IgG1-AXL-183-N52Q: point mutant of IgG1-AXL-183, VH SEQ ID NO:17, VL SEQ ID NO:18 (antibody, listed as Homo sapiens, V domains shown) VH: QVQLQQWGAGLLKPSETLSLTCAVYGGSFSGYYWSWIRQPPGKGLEWIGEIQQSGSTNYNPSLKSRVTISVDTSKNQFSLKLSSVTAADTSVYYCASGNWDHFFDYWGQGTLVTVSS VL: DIQMTQSPSSVSASVGDRVTITCRASQGISSWLAWYQHKPGKAPKLLIYATSSLQSGVTSRFSGSGSGTDFTLTISSLQPEDFATYYCQQAKSFPWTFGQGTKVEIK"
  recorded_value: "0.350 (0.206) µg/mL"
- molecule: "IgG1-AXL-733: AXL-specific human IgG1,κ antibody, VH SEQ ID NO:34, VL SEQ ID NO:35, FN1 domain binding (antibody, listed as Homo sapiens, V domains shown) VH: QVQLVESGGGVVQPGRSLRLSCAASGFSFSTYAMHWVRQAPGKGLEWVAVISYDGDNKYSADSVKGRFTISRDNSKNTLYLQMNSLRAEDTAVYYCARGRKLGIDAFDIWGQGTMVTVSS VL: AIQLTQSPSSLSASVGDRVTITCRASQGISSALAWYQQKPGKAPKLLIYDASSLESGVPSRFSGSGSGTDFTLTISGLQPEDFATYYCQQFNSYPFTFGPGTKVDIK"
  recorded_value: "0.176 (0.094) µg/mL"
- molecule: "IgG1-AXL-183: AXL-specific human IgG1,κ antibody, VH SEQ ID NO:16, VL SEQ ID NO:18, FN1 domain binding (antibody, listed as Homo sapiens, V domains shown) VH: QVQLQQWGAGLLKPSETLSLTCAVYGGSFSGYYWSWIRQPPGKGLEWIGEINQSGSTNYNPSLKSRVTISVDTSKNQFSLKLSSVTAADTSVYYCASGNWDHFFDYWGQGTLVTVSS VL: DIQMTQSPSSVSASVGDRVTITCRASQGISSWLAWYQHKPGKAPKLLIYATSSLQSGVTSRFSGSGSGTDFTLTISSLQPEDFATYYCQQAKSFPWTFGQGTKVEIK"
  recorded_value: "0.526 (0.177) µg/mL"

IN: Query Binding EC50 (µg/mL) human AXL Average (s.d.) for IgG1-AXL-726: AXL-specific human IgG1,κ antibody, VH SEQ ID NO:31, VL SEQ ID NO:33, FN2 domain binding (antibody, listed as Homo sapiens, V domains shown) VH: QVQLQQWGAGLLKPSETLSLTCAIDGGSFSGYYWSWIRQPPGKGLEWIGEISHSGRTNYNPSLKSRVTISIDTSKNQFSLKLSSVAAADTAVYYCARFITMIRGAIITHFDYWGQGALVTVSS VL: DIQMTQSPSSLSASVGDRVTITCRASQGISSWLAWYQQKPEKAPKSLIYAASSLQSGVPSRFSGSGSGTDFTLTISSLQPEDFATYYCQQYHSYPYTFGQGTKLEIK
OUT: 0.288 (0.206) µg/mL
